Protocol Notes: loss of swimming-algae plug formation – whole organism, Chlamydomonas reinhardtii, WT vs cilia-less mutant, absorbance, 96-well, primary screen (AID 463189)
Experimental Conditions: Chlamydomonas reinhardtii gravitaxis, OD600 absorbance, 2 days; at 10 µM
Active and inactive are the calls of the source.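 How the source made its calls: active means inhibition at or above 50% relative to wild type and mutant plate controls; inactive means inhibition below 50%.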
A correct response names exactly one class from active, inactive

CC[N+](CC)(CC)CC(=O)Nc1c(C)cccc1C = inactive
O=C(O)/C=C/c1cnc[nH]1 = inactive
CCCCN1CCC(n2c(=O)[nH]c3ccccc32)CC1 = inactive
O=C1C(SCCO)=C(SCCO)C(=O)c2ccccc21 = active
[N-]=[N+]=Nc1ccc(C(=O)CSC[C@H](NC(=O)CC[C@H](N)C(=O)O)C(=O)NCC(=O)O)cc1 = inactive

stdin: Which outcome was entered for the compound CO/N=C(\C(=O)N[C@@H]1C(=O)N2C(C(=O)O)=C(COC(C)=O)CS[C@H]12)c1csc(N)n1 (stereo in doubt) in this test?
stdout: inactive

stdin: Given COc1ccccc1OCC(O)CN1CCN(CC(=O)Nc2c(C)cccc2C)CC1 (centres undefined) , state the outcome it received in this test.
stdout: inactive

stdin: Identify the outcome logged in this assay for the compound shown: CC(=O)Nc1c(I)c(NC(C)=O)c(I)c(C(=O)O)c1I
stdout: inactive

stdin: Look up the recorded call for Cc1c(C)c2c(c(C)c1O)CCC(C)(CN1CCN(c3cc(N4CCCC4)nc(N4CCCC4)n3)CC1)O2 (centres undefined) in this test.
stdout: inactive

stdin: Assay result, entry CSc1ccc2c(c1)C(N1CCN(C)CC1)Cc1ccccc1S2 (centres undefined) — outcome?
stdout: inactive

stdin: For this compound, state the assay outcome: CCCCOc1ccccc1P(=O)(O)CP(=O)(c1ccccc1)c1ccccc1
stdout: inactive

stdin: Field: outcome | Entry: CCN1CCC[C@H]1CNC(=O)c1c(O)c(Cl)cc(Cl)c1OC
stdout: inactive

stdin: Kindly provide the recorded test outcome for the following compound: CCn1cc(/C=N/O)c(C)n1
stdout: inactive

stdin: Recorded test outcome, item CCC1(O)CC2CN(CCc3c([nH]c4ccccc34)[C@@](C(=O)OC)(c3cc4c(cc3OC)N(C)C3[C@]45CCN4CC=C[C@@](CC)([C@@H](OC(C)=O)[C@]3(O)C(=O)OC)[C@H]45)C2)C1 (some centres undefined)
stdout: inactive

stdin: Name the outcome recorded for CN(C(=O)CCCOc1ccc2[nH]c(=O)ccc2c1)C1CCCCC1 in the assay.
stdout: inactive

stdin: Hi, do you know how CC1(C)CCC=[N+]1[O-] came out in this test?
stdout: inactive

stdin: For N#Cc1cc2nc(O)c(O)nc2cc1[N+](=O)[O-] , what call appears in the results of this test?
stdout: inactive

stdin: Could you please tell me the result logged for COc1ccc(CCCOc2cc(CCn3ccnc3)ccc2OC)cc1 in this assay?
stdout: inactive

stdin: Could you kindly confirm the outcome this assay logged for CCCN(CC1CC1)c1nc(C)nc(Nc2c(Cl)cc(Cl)cc2Cl)c1Cl ?
stdout: inactive

stdin: What is the recorded call for this compound in the test? COc1cc(CC(=O)O)ccc1O
stdout: inactive

stdin: Give the logged outcome of this assay for the following compound: CC(C(O)c1ccc(O)cc1)N1CCC(Cc2ccccc2)CC1 (centres undefined)
stdout: inactive

stdin: Each compound tested received a call. Report the one for CN=C(N)NCCC[C@H](N)C(=O)O .
stdout: inactive

stdin: Any idea what this test logged for CN(C)C/C=C(/c1ccc(Br)cc1)c1cccnc1 ?
stdout: active

stdin: Fill in: this test's call for OC1(c2ccc(Cl)cc2)CCN(Cc2c[nH]c3ccccc23)CC1 is ___
stdout: inactive

src = PubChem BioAssay
